assay: Half life in Beagle dog at 1 mg/kg, po and measured upto 24 hrs by LC-MS/MS analysis; type: ADME, organism-based, Canis lupus familiaris; settings: in vivo
Experimental Readout: half-life (h)
Field: numeric (h). Do not append units.

In: Please look up its half-life: C[C@@H]1Cc2c(ccc3[nH]ncc23)[C@@H](c2c(F)cc(N3CCC4(CCN(C(=O)CN5Cc6cc7c(cc6C5)C(=O)N(C5CCC(=O)NC5=O)C7=O)CC4)CC3)cc2F)N1CC(F)F (stereo partly specified)
Out: 7.9

====

assay: Drug concentration in plasma of CB17 SCID mouse xenografted with human MCF7 cells harboring wild type ESR1 at 10 mg/kg, po qd for 3 days and measured after 24 hrs last dose by LC-MS/MS analysis; type: ADME, organism-based; settings: time 3 day
Experimental Readout: concentration at 72 h (ng/mL)
Field: numeric (ng/mL). Do not append units.

In: Please look up its concentration at 72 h: C[C@@H]1Cc2c(ccc3[nH]ncc23)[C@@H](c2c(F)cc(N3CCC4(CCN(C(=O)CN5Cc6cc7c(cc6C5)C(=O)N(C5CCC(=O)NC5=O)C7=O)CC4)CC3)cc2F)N1CC(F)F (stereo partly specified)
Out: 18

====

Reported bioavailability at 24 h values follow for various compounds
assay: in vivo; settings: Sprague-Dawley, rat, po, 3 mg/kg
Field: numeric (%). Do not append units.

// below: answered compounds
In: Please look up its bioavailability at 24 h: O=C1CCC(N2C(=O)c3cc4c(cc3C2=O)CN(C2CCN(CC3CCN(c5ccc([C@@H]6c7ccc(O)cc7CC[C@@H]6c6ccccc6)cc5)CC3)CC2)C4)C(=O)N1 (stereo partly specified)
Out: 30

In: Please look up its bioavailability at 24 h: O=C1CCC(N2C(=O)c3cc4c(cc3C2=O)CN(C2CCN(C(=O)C3CCN(c5ccc([C@@H]6c7ccc(O)cc7CC[C@@H]6c6ccccc6)cc5)CC3)CC2)C4)C(=O)N1 (stereo partly specified)
Out: 10

In: Please look up its bioavailability at 24 h: O=C1CCC(N2C(=O)c3cc4c(cc3C2=O)CN(CC(=O)N2CCC3(CC2)CCN(c2ccc([C@@H]5c6ccc(O)cc6CC[C@@H]5c5ccccc5)cc2)CC3)C4)C(=O)N1 (stereo partly specified)
Out: 13

In: Please look up its bioavailability at 24 h: C[C@@H]1Cc2c(ccc3[nH]ncc23)[C@@H](c2ccc(N3CCC4(CCN(C(=O)CN5Cc6cc7c(cc6C5)C(=O)N(C5CCC(=O)NC5=O)C7=O)CC4)CC3)cn2)N1CC(F)(F)F (stereo partly specified)
Out: 14

In: Please look up its bioavailability at 24 h: CN1Cc2cc3c(cc2C1)C(=O)N(C1CCC(=O)NC1=O)C3=O (stereo unspecified)
Out: 70

We next turn to a different compound, shown below.
In: Please look up its bioavailability at 24 h: C[C@@H]1Cc2c(ccc3[nH]ncc23)[C@@H](c2c(F)cc(N3CCC4(CCN(C(=O)CN5Cc6cc7c(cc6C5)C(=O)N(C5CCC(=O)NC5=O)C7=O)CC4)CC3)cc2F)N1CC(F)F (stereo partly specified)
Out: 20

====

assay: Drug concentration in tumor of CB17 SCID mouse xenografted with human MCF7 cells harboring wild type ESR1 at 30 mg/kg, po qd for 3 days and measured after 24 hrs last dose by LC-MS/MS analysis; format: ADME, organism-based, Neoplasm; details: time 3 day, read-out: Ct
Experimental Readout: concentration at 72 h (µg/mL)
Field: numeric (µg/mL). Do not append units.

In: Please look up its concentration at 72 h: C[C@@H]1Cc2c(ccc3[nH]ncc23)[C@@H](c2c(F)cc(N3CCC4(CCN(C(=O)CN5Cc6cc7c(cc6C5)C(=O)N(C5CCC(=O)NC5=O)C7=O)CC4)CC3)cc2F)N1CC(F)F (stereo partly specified)
Out: 0.413
